Listing of recorded koff by entry.
Target: SARS-CoV PL^pro (Severe acute respiratory syndrome coronavirus, UniProt P0C6X7)
Assay: biochemical
Assay type: binding
Conditions: read-out: dissociation rate constant kd
Supply the numeric figure in s⁻¹, leaving out any unit text.

Study these solved cases before continuing.
Smiles Entry | Test Target | Units Text | koff
CC(C)=CCc1cc(C(=O)/C=C/c2ccc(O)cc2)c(O)cc1O | SARS-CoV PL^pro (Severe acute respiratory syndrome coronavirus, UniProt P0C6X7) | s⁻¹ | 0.00412
CC(C)=CCc1cc(-c2oc3cc(O)c(CC=C(C)C)c(O)c3c(=O)c2O)cc(O)c1O | SARS-CoV PL^pro (Severe acute respiratory syndrome coronavirus, UniProt P0C6X7) | s⁻¹ | 0.00445
CC(C)=CCc1cc(C(=O)/C=C/c2ccc(O)c(O)c2)c(O)cc1O | SARS-CoV PL^pro (Severe acute respiratory syndrome coronavirus, UniProt P0C6X7) | s⁻¹ | 0.00388

Now take the following molecule into account.
Entry COc1cc(O)ccc1CCCc1cc(O)c(O)c(CC=C(C)C)c1CC=C(C)C : reported koff = ? 0.00591

These entries and their values trace back to paper PMC6010046.
